Values compiled from ChEMBL document CHEMBL3779865.

- study_system: Histone-lysine N-methyltransferase ASH1L (Homo sapiens)
- assay_info: Binding affinity to human His6-tagged ASH1L (E2433 to E2564 residues) expressed in Escherichia coli BL21(DE3) cells at 200 uM incubated for 30 mins by SYPRO orange staining based fluorescence thermal shift assay
assay_metric: ΔTm (°C)

                               smiles_input  assay_metric  value_units  measured_number
0  CCN1C(=O)c2cccc3c(NS(=O)(=O)C4CCCCC4)ccc1c23           ΔTm           °C             -0.4
1  CCCCS(=O)(=O)Nc1ccc2c3c(cccc13)C(=O)N2CC           ΔTm           °C             -0.4
2   CCCNS(=O)(=O)c1ccc2c3c(cccc13)C(=O)N2CC           ΔTm           °C             -0.5
3  CCOC(=O)Nc1cc(-c2ccc(C)c(NS(C)(=O)=O)c2)nn2c(C)nnc12           ΔTm           °C              0.4
4  CCN1C(=O)c2cccc3c(NS(=O)(=O)c4ccc(F)cc4F)ccc1c23           ΔTm           °C              2.9
5  CCN1C(=O)c2cccc3c(S(=O)(=O)NCCCCNC(=O)OC(C)(C)C)ccc1c23           ΔTm           °C                1
6  CCN1C(=O)c2cccc3c(S(=O)(=O)Nc4ccc(F)cc4)ccc1c23           ΔTm           °C                2
7  CCN1C(=O)c2cccc3c(S(=O)(=O)Nc4ccccc4C(=O)O)ccc1c23           ΔTm           °C              0.6
8  CCN1C(=O)c2cccc3c(NS(=O)(=O)c4cc(Br)ccc4OC)ccc1c23           ΔTm           °C             -1.1
9  CCN1C(=O)c2cccc3c(S(=O)(=O)NCCCN4CCN(C)CC4)ccc1c23           ΔTm           °C              0.8
